These data points were gathered from a melting point compilation (Tetko et al.; mined from patent text by program, amines drawn as free bases though some values may be those of a salt).

The following compounds are listed with their measured melting point values.

| Compound | Observed property | Result |
| --- | --- | --- |
| Oc1cc(C(F)CBr)c2oc(-c3ccc(O)c(F)c3)nc2c1 (stereo not given) | melting point | 185 to 186 °C |
| CSc1cc(C)nc(SC)c1NC(=O)CCCSc1nc2ccccc2s1 | melting point | 131 to 133 °C |
| CCCCc1nc2c(N)nc3ccccc3c2n1CCCCS(=O)(=O)c1ccc(F)cc1F | melting point | 190 to 193 °C |
| c1ccc2c(CSCc3cccc4ccccc34)cccc2c1 | melting point | 104 to 106 °C |

Kindly review the next compound as well.
Lookup result for Cc1cnn(-c2ccc(C(=O)N3C=C4CC=CN4Cc4ccccc43)cc2)c1 ; measured melting point: 179 to 181 °C
